Tested on: Wolbachia pipientis
assay comment: Anti-Wolbachia Cell-Based Screen
Format: functional
Set-up: scale not given: in the data most compounds retested in dose-response had high values
settings: 5 µM
Screen size: about 48,000 compounds; about 13,000 (27%) showed an effect of 50% or more. This is one part of the list.
reported metric: Percent Effect (%)
Report as a plain number; the unit % is understood.

Example entries begin here.
>>> quantitative_result("COc1ccc(OC)c(C2CCN(Cc3nc(C)n4ccccc34)C2)c1 (stereo not drawn)")
11.21
>>> quantitative_result("Cc1ccc(CN(C)C(=O)c2cccc(NC(N)=O)c2)o1")
-0.4854

Find the recorded Percent Effect belonging to CC(C)C(NC(=O)c1ccccc1F)C(=O)Nc1cnn(C)c1 (stereo not drawn) and report it.
10.34

Find the recorded Percent Effect belonging to Cc1noc(C)c1C(=O)N(C)Cc1nc(-c2ccccn2)no1 and report it.
-7.046

====

System: Wolbachia pipientis
assay comment: Anti-Wolbachia Cell-Based Screen
Assay type: functional
Set-up: scale not given: in the data most compounds retested in dose-response had high values
settings: 5 µM
The whole screen tested about 48,000 compounds, of which about 13,000 (27%) showed an effect of 50% or more. The list shows a part of the results.
reported metric: Percent Effect (%)
Report as a plain number; the unit % is understood.

Example entries begin here.
>>> quantitative_result("OC1(CN2CCCC2)CCCN(Cc2cnc(-c3ccco3)nc2)C1 (configuration not stated)")
-19.31
>>> quantitative_result("CN(C)C(=O)C1(Oc2ccc(Cl)cc2)CCNCC1")
-10.8

Find the recorded Percent Effect belonging to O=C(NCCN1CCOCC1)NCc1cccnc1-n1cccn1 and report it.
-2.618

Find the recorded Percent Effect belonging to OC1CCCN(Cc2c(-c3ccco3)[nH]c3ncccc23)C1 (configuration not stated) and report it.
-4.635

Find the recorded Percent Effect belonging to Cc1noc(C)c1CN1CCN(C(C)c2nc(C3CC3)no2)CC1 (configuration not stated) and report it.
133.7

Find the recorded Percent Effect belonging to CN1CCN(Cc2ccccc2Oc2nccc3occc23)CC1 and report it.
2.64

Find the recorded Percent Effect belonging to CCN1CCN(Cc2c(-c3ccco3)[nH]c3ncccc23)CC1 and report it.
126

Find the recorded Percent Effect belonging to CN1CCN(Cc2cccc(NCc3ncc[nH]3)c2)CC1 and report it.
-6.689

Find the recorded Percent Effect belonging to CC(C)c1noc(C(C)N2CCN(Cc3ccco3)CC2)n1 (configuration not stated) and report it.
-4.875

Find the recorded Percent Effect belonging to CCn1ccnc1CN1CCN(c2ncnc3ccccc23)CC1 and report it.
5.306

Find the recorded Percent Effect belonging to CC(C)c1noc(C(C)N2CCN(Cc3noc(C(C)(C)C)n3)CC2)n1 (configuration not stated) and report it.
117.7

Find the recorded Percent Effect belonging to OC1CCN(Cc2c(-c3ccco3)[nH]c3ncccc23)CC1 and report it.
97.96

====

Reported Percent Effect values follow for various molecules
Tested on: Wolbachia pipientis
assay comment: Anti-Wolbachia Cell-Based Screen
Format: functional
Set-up: scale not given: in the data most compounds retested in dose-response had high values
settings: 5 µM
Hit rate of the full screen: of about 48,000 compounds, about 13,000 (27%) showed an effect of 50% or more. The list shows a part of the results.
Report as a plain number; the unit % is understood.

Example entries begin here.
>>> quantitative_result("CN(C)c1ncccc1CNC(=O)N1CCCC1CN1CCCCC1 (configuration not stated)")
7.687
>>> quantitative_result("Cc1cccc(C(=O)NCCCN2CCN(c3ccccc3)CC2)c1")
0.2933
>>> quantitative_result("NC(=O)CCCNC(=O)Cc1cccc(I)c1")
-16.28
>>> quantitative_result("O=C(CCC1CCCO1)NCc1ccnc(-n2cccn2)c1 (configuration not stated)")
-9.533
>>> quantitative_result("O=C(NCCCO)Nc1cccc(I)c1")
5.16
>>> quantitative_result("Cc1nc2c(c(N3CCCC(CO)C3)n1)CCN(Cc1ccco1)CC2 (configuration not stated)")
-5.863

Find the recorded Percent Effect belonging to O=C(CCNC(=O)c1ccoc1)Nc1ccc(F)cc1F and report it.
-4.684

Find the recorded Percent Effect belonging to CC(C)Oc1ncccc1CNC(=O)N1CCC(C(N)=O)C1 (configuration not stated) and report it.
-8.219

Find the recorded Percent Effect belonging to O=C(Nc1ccc(F)cc1F)NC1(CO)CCOCC1 and report it.
-12.95

Find the recorded Percent Effect belonging to NC(=O)C1CCCN(Cc2c(-c3ccco3)[nH]c3ncccc23)C1 (configuration not stated) and report it.
-7.112

Find the recorded Percent Effect belonging to O=C(Cc1cccc(O)c1)NCCCNC(=O)c1cccc(F)c1 and report it.
107.1

Find the recorded Percent Effect belonging to Cc1cc(C(=O)N2CCC3(CC(=O)NC3=O)C2)c(-c2ccccc2)o1 (configuration not stated) and report it.
0.657

====

Test system: Wolbachia pipientis
assay comment: Anti-Wolbachia Cell-Based Screen
Assay type: functional
Parameters: scale not given: in the data most compounds retested in dose-response had high values
settings: 5 µM
Out of some 48,000 compounds screened, about 13,000 (27%) showed an effect of 50% or more. The list shows a part of the results.
reported metric: Percent Effect (%)
Report as a plain number; the unit % is understood.

>>> quantitative_result("COC(=O)C1(C)CCN(C(=O)NCCc2c(C)[nH]c3ccccc23)C1 (centres undefined)")
-5.132
>>> quantitative_result("Cc1nc(CN2CCCN(Cc3nc4c(F)cccc4[nH]3)CC2)no1")
93.2
>>> quantitative_result("Cc1cnc(CN(C)C2CCN(Cc3nc4c(F)cccc4[nH]3)C2)o1 (centres undefined)")
88.38
>>> quantitative_result("NC(=O)C1CCN(C(=O)C2SCCc3sccc32)CC1 (centres undefined)")
-9.27
>>> quantitative_result("COc1ccc(CCn2cnnc2[S+](C)[O-])cc1 (centres undefined)")
-1.402

Find the recorded Percent Effect belonging to COc1ccc(-n2ccc(CNCc3ccc(OC)c(O)c3)n2)cc1 and report it.
-11.8

Find the recorded Percent Effect belonging to CC(c1ccc(Cl)cc1)N1CCN(CCS(N)(=O)=O)CC1 (centres undefined) and report it.
-4.709

Find the recorded Percent Effect belonging to CCCN1CCC(N(C)C(=O)c2cc(C)nc3cc(F)ccc23)CC1 and report it.
11.04

Find the recorded Percent Effect belonging to COC(=O)c1ccc(CNC(=O)Cc2csc(C(C)=O)c2)cc1 and report it.
12.04

Find the recorded Percent Effect belonging to CCN1CCCC(c2c(-c3ccccc3)ncn2CCCO)C1 (centres undefined) and report it.
-4.818

Find the recorded Percent Effect belonging to Cc1ccc(S(C)(=O)=O)cc1C(=O)NS(=O)(=O)c1ccc(Cl)cc1 and report it.
-5.911

Find the recorded Percent Effect belonging to CCCS(=O)(=O)CCN1CCN(C(C#N)c2ccccc2)CC1 (centres undefined) and report it.
125.8

Find the recorded Percent Effect belonging to O=C(NCCNc1ncccn1)N1CCCC(C(F)(F)F)C1 (centres undefined) and report it.
-15.03

Find the recorded Percent Effect belonging to COCCN(Cc1ccccn1)C(=O)CC1OCCc2ccsc21 (centres undefined) and report it.
1.398

Find the recorded Percent Effect belonging to CN(CC(F)(F)F)C(=O)CNC(=O)N1CCCC(N(C)C)C1 (centres undefined) and report it.
95.13

Find the recorded Percent Effect belonging to Cc1nc(CN(C)C2CCN(Cc3nc4c(F)cccc4[nH]3)C2)no1 (centres undefined) and report it.
95.7

Find the recorded Percent Effect belonging to CN1CCC(N(C)C(=O)c2cnn(-c3cc(F)ccc3F)c2N)CC1 and report it.
123.1

Find the recorded Percent Effect belonging to CCCS(=O)(=O)CCN1CCN(c2cc(F)ccc2F)CC1 and report it.
-4.475

Find the recorded Percent Effect belonging to CCn1cc(CNCc2ccc(C(=O)OC)cc2)c(C)n1 and report it.
153.8

====

Test system: Wolbachia pipientis
assay comment: Anti-Wolbachia Cell-Based Screen
Type: functional
Set-up: scale not given: in the data most compounds retested in dose-response had high values
settings: 5 µM
Out of some 48,000 compounds screened, about 13,000 (27%) showed an effect of 50% or more. The list shows a part of the results.
Reported Percent Effect values follow for various compounds
Report as a plain number; the unit % is understood.

Example entries begin here.
>>> quantitative_result("O=C(O)C(F)(F)F.O=C(c1cscn1)N1CC[C@@H]2[C@@H]1CCN2C1CCOC1 (stereo partly drawn)")
99.27
>>> quantitative_result("FC1(F)CCN(c2ccccc2)CC12CCN(c1ncccn1)C2 (stereo not drawn)")
4.725
>>> quantitative_result("O=C(CN1CCCC1c1nc(-c2ccccc2)no1)N1CCOCC1 (stereo not drawn)")
6.777
>>> quantitative_result("CN(CCC1CCOCC1)[C@@H]1c2ccccc2C2(CCNCC2)[C@H]1O")
-1.046
>>> quantitative_result("CCN1Cc2nc(OC)c(CNC(=O)C3CCS(=O)(=O)CC3)cc2C1=O")
82.23

Find the recorded Percent Effect belonging to O=C(CCC1CCCCC1)NCc1nnc2ccccn12 and report it.
-0.7171

Find the recorded Percent Effect belonging to O=C(O)C(F)(F)F.O=C(c1cscn1)N1CCO[C@H]2[C@@H](Oc3ccccn3)CC[C@@H]21 and report it.
-13.1

Find the recorded Percent Effect belonging to O=C(NCc1ccco1)[C@H]1C[C@@H]2CCN(c3ncccn3)C[C@H]2O1.O=C(O)C(F)(F)F and report it.
105.1

Find the recorded Percent Effect belonging to Cc1ccc2nc(CN3CCCCC3C(=O)N3CCOCC3)cn2c1 (stereo not drawn) and report it.
89.82

Find the recorded Percent Effect belonging to Cc1ccc(N2CCOC(C)(C(=O)N(C)C)C2)nn1 (stereo not drawn) and report it.
160

Find the recorded Percent Effect belonging to O=C(N1CCCO1)[C@]12COC[C@H]1CN(Cc1nccs1)C2.O=C(O)C(F)(F)F and report it.
-2.706

Find the recorded Percent Effect belonging to O=C(Cc1cccs1)N1CC(c2nc(-c3cnccn3)no2)C1 and report it.
16.37

Find the recorded Percent Effect belonging to COC(=O)c1ccc(S(=O)(=O)N(C)CC(N)=O)c(Cl)c1 and report it.
-3.285

Find the recorded Percent Effect belonging to CCCc1nc(C)c(C(=O)NCc2ccc(C)n2C)s1 and report it.
17.26

Find the recorded Percent Effect belonging to COc1ccc(Oc2ccc(CNC(=O)C3CCS(=O)(=O)C3)cn2)cc1 (stereo not drawn) and report it.
-6.307

Find the recorded Percent Effect belonging to CCN(CC)CCn1cnc(-c2ccccc2)c1-c1cnc(C)s1 and report it.
-4.484

Find the recorded Percent Effect belonging to N#Cc1ccccc1OCCN1CCCCC1C(=O)N1CCOCC1 (stereo not drawn) and report it.
9.052

Find the recorded Percent Effect belonging to Cc1nccc(-c2cccc(NCc3nc(C(C)C)no3)c2)n1 and report it.
4.778

Find the recorded Percent Effect belonging to CC(C)CCN1C2(CCN(C(=O)N(C)C)C2)c2ccccc2S1(=O)=O (stereo not drawn) and report it.
108.8

Find the recorded Percent Effect belonging to CCc1nnsc1C(=O)NCCC1CN(C(C)C)CCO1 (stereo not drawn) and report it.
2.098
